Data origin, for the record: patent US20250296938A1

Listed here are molecules together with their documented inhibition at 20 µM.
Biological target: Rho-A (Homo sapiens)
Sequence (P61586 1-190): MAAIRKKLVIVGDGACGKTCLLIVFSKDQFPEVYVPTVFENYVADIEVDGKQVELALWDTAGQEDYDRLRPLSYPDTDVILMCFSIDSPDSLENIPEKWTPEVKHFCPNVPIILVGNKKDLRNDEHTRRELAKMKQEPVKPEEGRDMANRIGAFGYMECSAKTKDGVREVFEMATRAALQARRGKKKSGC
Assay: Ras GTP binding domain inhibition assay (Cy3-GTP/Cy5-GTP competition)
Conditions: with SOS, read-out: Rho-A + SOS: % inh.

Consider the worked cases shown below.
Qu. Entry CCn1cc(Nc2nc(-c3ccccn3)nc(O)c2OC)cn1 [drawing 1016] : reported inhibition at 20 µM = ?
Ans. 51 to 75%

Qu. Entry to check: COCC(C)Nc1nc(-c2nccn2C)nc2sc(-c3cccc(OC)c3)c(-c3cscn3)c12 (centres unmarked) [drawing 990]
Ans. 26 to 50%

Continuing:
Qu. Entry O=C(c1nc(-c2ccccn2)nc(O)c1O)N1CCc2ccccc2C1 [drawing 967] : reported inhibition at 20 µM = ?
Ans. 76 to 100%

Qu. Entry to check: COC1CCN(c2nc(-c3nccn3C)nc3sc(-c4cccnc4)c(-c4ccccc4)c23)C1 (centres unmarked) [drawing 979]
Ans. 51 to 75%

Qu. Entry to check: COC1CCN(c2nc(-c3nccn3C)nc3sc(Br)c(-c4ccccc4)c23)C1 (centres unmarked) [drawing 957]
Ans. 26 to 50%

Qu. Entry to check: CO[C@H]1CCC(Nc2nc(-c3nccn3C)nc3sc(-c4ccn(C)n4)c(-c4ccccc4)c23)C1 (some centres unmarked) [drawing 995]
Ans. 76 to 100%

Qu. Entry to check: CO[C@H]1CC[C@@H](Nc2nc(-c3nccn3C)nc3sc(-c4ccn(C(C)C)n4)c(-c4ccccc4)c23)C1 [drawing 1047]
Ans. 76 to 100%

Qu. Entry to check: COCCN(C)C(=O)c1nc(-c2ccccn2)nc(O)c1O [drawing 945]
Ans. 26 to 50%

###

Test system: KRas Q61H mutant
Test: Ras GTP binding domain inhibition assay (Cy3-GTP/Cy5-GTP competition)
Set-up: species or system human
Conditions: 20 μM; without SOS
MEASUREMENT TYPE: KRas Q61H mutant: % inh.

Qu. Entry COC1CCN(c2nc(-c3nccn3C)nc3sc(-c4ccc(N)nc4C)c(-c4ccccc4)c23)C1.Cl (stereo not drawn) : reported KRas Q61H mutant: % inh. = ?
Ans. A (1-25% inhibition)

Qu. Entry to check: COC(=O)c1nc(C2NCCN2C)nc(O)c1O (stereo not drawn)
Ans. C (51-75% inhibition)

Qu. Entry to check: Cn1ccnc1-c1nc(O)c(O)c(C(=O)NC2CCCC2)n1 [drawing 827]
Ans. C (51-75% inhibition)

Qu. Entry to check: COc1cccc(-c2sc3nc(-c4nccn4C)nc(N4CCC(OC)C4)c3c2-c2ccccc2)c1F.Cl (stereo not drawn) [drawing 838]
Ans. B (26-50% inhibition)

Qu. Entry to check: Cn1ccnc1-c1nc(O)c(O)c(C(=O)N2CCCC2)n1 [drawing 828]
Ans. C (51-75% inhibition)

Qu. Entry to check: COCCNc1nc(-c2cn(C)cn2)nc2sc(-c3cccc(OC)c3Cl)c(-c3ccc(OC)cc3)c12 [drawing 797]
Ans. C (51-75% inhibition)

Continuing:
Qu. Entry COc1ccc(-c2c(-c3ccn(C)n3)sc3nc(-c4nccn4C)nc(N4CCC(OC)C4)c23)cc1 (stereo not drawn) [drawing 868] : reported KRas Q61H mutant: % inh. = ?
Ans. A (1-25% inhibition)

Qu. Entry to check: Oc1nc(-c2nccn2Cc2ccccn2)nc2c(-c3ccccn3)csc12 [drawing 851]
Ans. C (51-75% inhibition)

###

System: MIA PaCa-2 pancreatic cancer cell line
Test: Cell proliferation assay (DAPI)
Assay type: cell-based
Details: Homo sapiens; MIA PaCa-2 (Table 5A)
MEASUREMENT TYPE: IC50

Qu. For MIA PaCa-2 pancreatic cancer cell line, provide IC50 of COc1cccc(-c2sc3nc(-c4nc(C)cn4C)nc(N[C@@H]4CC[C@H](OC)C4)c3c2C)c1F [drawing 631] please.
Ans. 750 to 1000 nM

Qu. Entry to check: COCCNC(=O)c1sc2nc(-c3nccn3C)nc(N[C@@H]3CC[C@H](OC)C3)c2c1-c1ccccc1 [drawing 660]
Ans. > 1000 nM

Qu. Entry to check: CO[C@H]1C[C@@H](Nc2nc(-c3ncc[nH]3)nc3sc(-c4ccn(C)n4)c(-c4ccccc4)c23)C1 [drawing 645]
Ans. 750 to 1000 nM

Qu. Entry to check: CO[C@H]1C[C@@H](Nc2nc(-c3nccn3C)nc3sccc23)C1 [drawing 638]
Ans. > 1000 nM

Continuing:
Qu. For MIA PaCa-2 pancreatic cancer cell line, provide IC50 of COc1cccc(-c2sc3nc(-c4nccn4C)nc(N[C@H]4C[C@@H](OC)C4)c3c2-c2ccccc2)c1F [drawing 626] please.
Ans. 500 to 749 nM

Qu. Entry to check: COC1CCN(c2nc(-c3nccn3C)nc3sc(-c4cccc(O)c4F)c(-c4ccccc4)c23)C1 (centres unmarked) [drawing 625]
Ans. > 1000 nM

Qu. Entry to check: COc1nc(-c2ccccn2)nc2c(-c3ccccn3)csc12 [drawing 648]
Ans. > 1000 nM

Qu. Entry to check: CO[C@H]1C[C@@H](Nc2nc(-c3nccn3C)nc3sc(C(=O)NC(C)C)c(-c4ccccc4)c23)C1 [drawing 655]
Ans. > 1000 nM

Qu. Entry to check: CO[C@H]1CC[C@@H](Nc2nc(-c3nccn3C)nc3sc(C(=O)N4CCOCC4)c(-c4ccccc4)c23)C1 [drawing 662]
Ans. > 1000 nM

Qu. Entry to check: COc1cccc(-c2sc3nc(-c4nccn4C)nc(NC4CCC(OC)C4)c3c2C)c1F (centres unmarked) [drawing 628]
Ans. 750 to 1000 nM

Qu. Entry to check: CC(C)COc1ccc(-c2csc3c(O)nc(-c4nccn4Cc4ccccn4)nc23)cn1 [drawing 634]
Ans. 500 to 749 nM

###

Test system: KRas G12C mutant
Test: Ras GTP binding domain inhibition assay (Cy3-GTP/Cy5-GTP competition)
Design: species or system human
Conditions: 20 μM; without SOS (Table 7A)
Excerpt: The following method was developed as specific assay for the following proteins: KRas wild type, KRas Q61H mutant, KRas G12C mutant, KRas G12D mutant, HRas wild type, Rac-1, and Rho-A. […] The small GTPases proteins: KRas wild type. KRas Q61H mutant, KRas G12C mutant, KRas G12D mutants, HRas wild type, Rac-1, and Rho-A were expressed as His-tagged proteins. In addition, the Guanosine nucleotide Exchange Factor (GEF) Sos protein (residues 556-1049) was expressed as a His-tagged protein. […]
MEASUREMENT TYPE: KRas G12C mutant: % inh.

Consider the worked cases shown below.
Qu. Entry CO[C@H]1C[C@@H](Nc2nc(-c3nccn3C)nc3sccc23)C1 [drawing 903] : reported KRas G12C mutant: % inh. = ?
Ans. D (76-100% inhibition)

Qu. Entry to check: Cc1c(-c2ccn(C)n2)sc2nc(-c3nccn3C)nc(NCCCS(C)(=O)=O)c12 [drawing 916]
Ans. C (51-75% inhibition)

Qu. Entry to check: CO[C@H]1CC[C@@H](Nc2nc(-c3nccn3C)nc3sc(-c4ccn(C(C)C)n4)c(C)c23)C1 [drawing 919]
Ans. C (51-75% inhibition)

Qu. Entry to check: CN(C)CCOCCNc1nc(-c2nccn2C)nc2sc(-c3ccn(C)n3)c(-c3ccccc3)c12 [drawing 907]
Ans. C (51-75% inhibition)

Qu. Entry to check: COc1cccc(-c2sc3nc(-c4nccn4C)nc(N[C@H]4C[C@@H](OC)C4)c3c2-c2ccccc2)c1F [drawing 891]
Ans. C (51-75% inhibition)

Continuing:
Qu. Entry COc1cccc(-c2sc3nc(-c4nccn4C)nc(NC4CCC(OC)C4)c3c2C)c1F (centres unmarked) [drawing 893] : reported KRas G12C mutant: % inh. = ?
Ans. D (76-100% inhibition)

Qu. Entry to check: COC1CCC(Nc2nc(-c3nccn3C)nc3sc(-c4cccc5[nH]ncc45)c(C)c23)C1 (centres unmarked) [drawing 895]
Ans. B (26-50% inhibition)

Qu. Entry to check: CO[C@H]1C[C@@H](Nc2nc(-c3nccn3C)nc3sc(C(=O)N4CCOCC4)c(-c4ccccc4)c23)C1 [drawing 922]
Ans. D (76-100% inhibition)

Qu. Entry to check: COc1c(F)cccc1-c1sc2nc(-c3nccn3C)nc(NC3CCC(OC)C3)c2c1-c1ccccc1 (centres unmarked) [drawing 886]
Ans. B (26-50% inhibition)

Qu. Entry to check: CO[C@H]1C[C@@H](Nc2nc(-c3nccn3C)nc3sc(C(=O)NC(C)C)c(-c4ccccc4)c23)C1 [drawing 920]
Ans. D (76-100% inhibition)
